# Assay Target: PDE10 (Rattus norvegicus)
# Construct: from tissue; host or cells: rat brain sections, striatum (in vivo dosing, ex vivo autoradiography)
# Sequence (Q9QYJ6 1-794): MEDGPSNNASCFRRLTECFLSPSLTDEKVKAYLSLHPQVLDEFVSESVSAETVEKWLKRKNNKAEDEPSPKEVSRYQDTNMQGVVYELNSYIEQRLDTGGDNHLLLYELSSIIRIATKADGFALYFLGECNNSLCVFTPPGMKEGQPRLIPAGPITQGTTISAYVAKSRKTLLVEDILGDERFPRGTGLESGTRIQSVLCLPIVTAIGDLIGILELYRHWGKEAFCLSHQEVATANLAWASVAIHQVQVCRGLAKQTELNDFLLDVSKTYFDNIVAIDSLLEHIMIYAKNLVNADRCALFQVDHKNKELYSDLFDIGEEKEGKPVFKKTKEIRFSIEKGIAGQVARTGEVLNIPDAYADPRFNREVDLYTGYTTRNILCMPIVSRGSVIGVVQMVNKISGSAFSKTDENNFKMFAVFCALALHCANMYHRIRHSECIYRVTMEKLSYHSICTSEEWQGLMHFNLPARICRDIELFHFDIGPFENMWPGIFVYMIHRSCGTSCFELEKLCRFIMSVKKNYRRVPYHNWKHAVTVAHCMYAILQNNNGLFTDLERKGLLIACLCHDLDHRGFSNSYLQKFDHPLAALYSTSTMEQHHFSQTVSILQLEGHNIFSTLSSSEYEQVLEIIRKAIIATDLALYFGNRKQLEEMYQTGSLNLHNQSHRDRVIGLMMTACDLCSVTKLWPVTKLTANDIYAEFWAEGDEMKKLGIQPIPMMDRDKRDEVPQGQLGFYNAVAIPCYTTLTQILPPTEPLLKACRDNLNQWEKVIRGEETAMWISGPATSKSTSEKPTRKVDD
# Assay Text: PDE10 occupancy ([3H]-MP-10, striatum)
# Assay type: in vivo
# Run Parameters: rat, sc; dose response, subcutaneous administration; read-out: PDE10 in vivo occupancy ED50 sc
# ED50 listing for each entry below
Numbers only here, please. The scale is mg/kg.

Here are 3 molecules together with their reported answers.
COCCOc1ccc(-c2c(C)nc3c(-c4ccncc4)ccnn23)cn1
2.6
COC(C)(C)Cc1ccc(-c2c(C)nc3c(N4CCOCC4)ccnn23)cn1
2
CCc1ccc(-c2c(C)nc3c(N4CCOCC4)ccnn23)cn1
1.1

Attention now turns to another entry.
**Query** ED50 lookup needed for COC(C)(C)Cn1cc(-c2c(C)nc3c(N4CCOCC4)ccnn23)cn1 , thanks.
**Result** 2.2

Numbers sourced from patent US20120220581A1.
